assay: in situ brain/choroid plexus perfusion: CNS uptake of [^3H]-arginine, [^3H]-ADMA and [^14C]-sucrose (multiple-time and single-time uptake analysis); details: male, BALB/c, mouse, occipital cortex, [3H] ADMA and [14C] Sucrose uptake, 2.5 mins, 5ml/min; individual mouse
Counter-ions that a name gives are not always drawn.
assay-metric: Kp at […], 62.5 nM

- compound: "CN(C)C(N)=NCCC[C@H](N)C(=O)O [ADMA, N^G,N^G-dimethylarginine dihydrochloride]"
  reported-result: 0.083

----------
experiment: capillary depletion analysis after in situ brain perfusion; format: in vivo, mouse; conditions: male, Balb/c, mouse, endothelial cell-enriched pellet after capillary depletion, other: in situ brain perfusion, with unlabelled ADMA 3 µM, Arginine / Sucrose uptake, pellet, mean, [3H] Arginine + [14C] Sucrose + 3 uM ADMA, 10 mins, Balb/c ♂, 5ml/min; mean

- molecule: "OC[C@H]1O[C@@](CO)(O[C@H]2O[C@H](CO)[C@@H](O)[C@H](O)[C@H]2O)[C@@H](O)[C@@H]1O [[^14C]-sucrose, reference compound]"
  Kp at 10 min: 0.00326
